Assign EC50 to each entry below.
- measured on: T1, Human DDR1 extracellular domain (ECD) protein (human, UniProt Q08345 21-417)
- T1 construct: it is treated here as the same molecule; also called recombinant human DDR1 ECD; huDDR1 ECD; not shown: 6xHIS-tag
- protocol notes: titration ELISA; target not given, human DDR1 assumed
Don't forget the unit after the value.

Check out these entries, answers already filled in.
binder	result
DDR1-3 (antibody, V domains shown, Rabbit variable domains; also called anti-huDDR1 antibody #3; DDR1-3K/DDR1-3H) VH: QSVKESGGRLVTPGTPLTLTCTVSGIDLSSYAMSWVRQAPGKGLEWIGTINIGGGTWDATWARGRFTISRTSTTVDLKITSPTIGDTATYFCARDVDAHTLTYFTLWGPGTLVTISS VL: ELVLTQTPASVSEPVGGTVTIKCQASQTISSWLSWYQQKPGQPPKLLIYYAFNLASGVPSRFKGSGSGTEFTLTISDLECADAATYYCQQGISSSNVDNVFGGGTEVVVK	0.0598 µg/mL
DDR1-14 (antibody, V domains shown, Rabbit variable domains; also called anti-huDDR1 antibody #14; DDR1-14K/DDR1-14H) VH: QSVKESGGRLVTPGTPLTLTCTVSGIDLSYYAMSWVRQAPGKGLEYIGIINGRGDTGYATWAKGRFTISKTSTTVDLRITSPTIEDTATYFCAREDSAIPFIVGNYYGMDLWGPGTLVTVSS VL: ELDMTQTPASVSEPVGGTVTIKCQASQSISSYLAWYQQKPGQPPKRLIFEASTLASGVPSRFSGSGSGTDFTLTISDLECADAATYYCQNNNGFSGSNFNNFGGGTEVEIK	0.0713 µg/mL
DDR1-9 (antibody, V domains shown, Rabbit variable domains; also called anti-huDDR1 antibody #9; DDR1-9K/DDR1-9H) VH: QSLEESGGRLVTPGTPLTLTCTASGFSLNRYYMLWVRQAPGEGLEWIGTISYGDTTYYASWAKGRFTISKTSTTVDLKMTSPTTEDTATYFCARADTGDNGYLGLQLWGPGTLVTVSS VL: ELVMTQTPASVEAAVGGTVTIKCQASQSIGSVLAWYQQKPGQRPKLLISGVFDLASGVPSRFKGSGSGTEFTLTISDLECADAATYYCQYIPYGSSPFGGGTEVVVK	0.183 µg/mL

Briefly, EC50 measured for DDR1-33 (antibody, V domains shown, Rabbit variable domains; also called anti-huDDR1 #33 antibody; DDR1-33K/DDR1-33H) VH: QSVEESGGRLVTPGGSLTLTCTVSGFSLSSYDMSWVRQAPGKGLEWIGISWNSGFVDYASWAKGRFSISKTSTTVDLKITSPTTEDTATYFCARLGADDIYYFNLWGPGTLVTISS VL: ELVMTQTPASVEAAVGGTVTIKCQASETISSRLAWYQQKPGQPPKLLIYQASKLPSGVPSRFKGTGSGTEYTLTISDLECADAATYYCQGCYYGGGSFYDSAFGGGTEVVVK : 0.148 µg/mL
